Each recorded value in this set is attributed to patent US7582803B2.

- system: UniProtKB O14842
- assay explanation: Cell-based aequorin assay
- recorded conditions: CHO cells stably transfected with GPR40 and aequorin; 0.01% HSA; aequorin luminescence; read-out: Relative EC50
assay readout: EC50

The examples below pair each entry with its known result.
> print(dat)
                                   compound             val
1  Cn1nnnc1[C@@H](CC(=O)O)c1ccc(OCc2ccc3c(c2)C(C)(C)CCC3(C)C)cc1    10 to 100 nM
2  Cn1ccnc1[C@@H](CC(=O)O)c1ccc(OCc2ccc3c(c2)C(C)(C)CCC3(C)C)cc1  100 to 1000 nM
3  O=C(O)CC1CCCc2cc(OC3Cc4ccccc4C3)ccc21 (racemic)  100 to 1000 nM

# return EC50 for each item in the list
1. CC#C[C@@H](CC(=O)O)c1ccc(OC2CCc3cc(-c4ccc(C(F)(F)F)cc4)ccc32)cc1 (some centres unmarked)
2. O=C(O)CC(c1ccc(OC2Cc3ccccc3C2)cc1)c1c(F)cccc1F (racemic)
3. CC#C[C@@H](CC(=O)O)c1ccc(OC2CCc3cc(-c4cccc(OC(F)(F)F)c4)ccc32)cc1 (some centres unmarked)
4. CC#C[C@@H](CC(=O)O)c1ccc(OC2CCc3cc(Cl)ccc32)cc1 (some centres unmarked)
5. Cn1nncc1[C@@H](CC(=O)O)c1ccc(OCc2ccc3c(c2)C(C)(C)CCC3(C)C)cc1

Reply |
1. 10 to 100 nM
2. 1000 to 10000 nM
3. 10 to 100 nM
4. < 10 nM
5. 10 to 100 nM

* * *

- system: human GPR40 (Homo sapiens, UniProt O14842)
- Sequence (O14842 whole entry): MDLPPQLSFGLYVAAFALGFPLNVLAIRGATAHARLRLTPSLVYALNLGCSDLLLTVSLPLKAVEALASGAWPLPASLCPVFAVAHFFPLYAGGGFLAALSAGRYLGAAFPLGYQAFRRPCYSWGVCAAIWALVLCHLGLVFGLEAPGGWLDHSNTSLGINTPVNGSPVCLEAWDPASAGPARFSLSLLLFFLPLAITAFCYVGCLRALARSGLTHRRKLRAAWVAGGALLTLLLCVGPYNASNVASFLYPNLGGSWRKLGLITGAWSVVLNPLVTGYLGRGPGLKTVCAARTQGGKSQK
- assay explanation: Cell-based aequorin assay
- recorded conditions: CHO cells stably transfected with GPR40 and aequorin; 0.01% HSA; aequorin luminescence; read-out: Relative EC50
- Procedure: Cell-based aequorin assays were employed to characterize the modulatory activity of compounds on the GPR40 signaling pathway. In an exemplary assay, CHO cells were stably transfected with both GPR40 and Aequorin (Euroscreen). Cells were detached from the tissue culture dish with 2 mL of trypsin (0.25% (w/v)). […] Aequorin luminescence measurements were made using an EG&G Berthold 96-well luminometer, and the response was measured over a 20 second interval after cells and compounds were mixed. […]
Provide the recorded EC50 for the entries that follow.

> print(dat)
                                   molecule  assay.readout               val
1  O=C(O)CC(c1ccc(OC2Cc3ccccc3C2)cc1)c1cc(F)cc(F)c1 (racemic)           EC50    100 to 1000 nM
2  CC#C[C@H](CC(=O)O)c1ccc(OC2CCc3cc(-c4c(C)cc(C)cc4C)ccc32)cc1 (some centres unmarked)           EC50        > 10000 nM
3  CC#C[C@@H](CC(=O)O)c1ccc(OC2CCc3c(-c4cc(C)ccc4OCCCC)cccc32)cc1 (some centres unmarked)           EC50      10 to 100 nM
4  CC#C[C@H](CC(=O)O)c1ccc(OC2CCc3cc(-c4cccc(OC(F)(F)F)c4)ccc32)cc1 (some centres unmarked)           EC50        > 10000 nM
5  CC1(C)CCC(C)(C)c2cc(COc3ccc(C(CC(=O)O)C4=NOCC4)cc3)ccc21 (centres unmarked)           EC50    100 to 1000 nM
6   CC#C[C@@H](CC(=O)O)c1ccc(OCCC2CCCC2)cc1           EC50    100 to 1000 nM
7  O=C(O)CC(c1ccc(OC2CCC(c3ccccc3)CC2)cc1)c1cccs1 (racemic)           EC50  1000 to 10000 nM

Ask | Data request, read-out EC50, for Cn1ccnc1[C@@H](CC(=O)O)c1ccc(OCc2ccc3c(c2)CCCC3)cc1
Reply | 100 to 1000 nM
